System: COLO 205 colon
Assay: NCI tumour cell line growth inhibition, 48 h
measure: TGI

Answered examples (5):
COc1ccc(OC)c2c1C(=O)C(Cl)=C(Cl)C2=O = 3.21 µM
C=C(C)[C@@H]1CC[C@]2(C)[C@H](CC=C3[C@@H]4CC(C)(C)CC[C@]4(C(=O)OC)CC[C@]32C)[C@@]1(C)CC/C(N)=N/O = 6.54 µM
COc1cccc(C(=O)O)c1Cc1cccc2ccccc12 = > 100 µM
CP(=O)(CCSc1ccccc1)c1ccccc1 (configuration not stated) = > 100 µM
COc1cc(/C=C\c2cc(/C=C\c3ccc(O)c(OC)c3)n(C(=O)Nc3ccc(C(F)(F)F)cc3)n2)ccc1O = 4.5 µM

I would be grateful if you could provide TGI for each of the following entries.
1. CCN(CC)CCNC(=O)c1ccccc1Nc1c(Cl)cccc1Cl
2. C1CSCCSS[C@@H]2CCCCC2SC1 (some centres not stated)
3. COc1ccc(-n2c(C)nc3ccc(N=Cc4ccccc4)cc3c2=O)cc1

-- reply
1. 26.7 µM
2. > 100 µM
3. > 100 µM

---

So I've got a bunch of compounds here, and I need their TGI values.
System: SF-295 CNS
Assay: NCI tumour cell line growth inhibition, 48 h
Numbers only, in µM.

Worked examples, 10 compounds total:
CN(C)CCNc1ccc2nnn3c4ccc(Cl)cc4c(=O)c1c23 = 15.7
c1ccc2c(c1)[Se]c1ccccc1[Se]2 = 73.8
O=C(Cc1ccccc1)NN1C(=O)C(Cl)C1c1cc(Br)cc(Br)c1O (stereo not drawn) = 98.7
CCCN(CCC)C(=O)Cc1c2n(c3ccccc13)CCCc1ccccc1-2 = 22.4
C[C@H](C(=O)N1C(=O)O[C@@H](c2ccccc2)[C@H]1C)[C@H](c1ccccc1)N(Cc1ccccc1)OC(=O)c1ccccc1 = 90.9
CO/N=C(\COc1ccc2c(=O)cc(-c3ccccc3)oc2c1)c1ccc(OC)cc1 = 46.5
Cc1cc2cc(Oc3ccnc(Nc4cccc(CS(=O)(=O)NCCN(C)C)c4)n3)ccc2[nH]1 = 21.5
NC(=O)c1nnc2cc(F)c(F)cc2c1N = 64.5
O=C1c2ccccc2C(=O)c2[nH]c(=O)c(/C=N/Nc3ccc([N+](=O)[O-])cc3)nc21 = 12.4
COc1ccc2c3c([nH]c2c1[N+](=O)[O-])C(C)N(C(=O)/C=C/c1ccccc1)CC3 (stereo not drawn) = 5.88

Working through the 3 compounds below one at a time, give TGI for each.
1. CCCCCCCCOC(=O)c1cc(O)c(O)c(O)c1
2. CNC1=C(Br)C(=O)C2=C(C1=O)C1C3=C(C(=O)C=CC3=O)C2c2ccccc21 (stereo not drawn)
3. CC(=O)O[C@H]1CC[C@]2(C)[C@H]3C(=O)C=C4[C@@H]5C[C@](C)(C(=O)N6CCCNCC6)CC[C@]5(C)CC[C@@]4(C)[C@]3(C)CC[C@H]2C1(C)C

-- reply
8.47
45.8
3.2

Count: 3. Required value per item: TGI.
1. O=C1c2ccccc2C(=O)c2c1c(NCCNCCO)c1cc[nH]c1c2NCCNCCO
2. C=C(C)[C@@H]1CC[C@]2(C)[C@H](CC=C3[C@@H]4CC(C)(C)CC[C@]4(C(=O)OC)CC[C@]32C)[C@@]1(C)CC/C(N)=N/O
3. CN(C)c1ncc(-c2c[nH]c3ccccc23)nc1-c1c[nH]c2ccccc12

-- reply
1. 43
2. 4.01
3. 6.48

For each of the items listed, what is its TGI?
1. COc1ccc(-n2nc(C)c3c(Nc4ccc(NC(=O)Nc5cc(C(F)(F)F)ccc5F)cc4)ncnc32)cc1
2. O=c1cc2oc3ccc4ccccc4c3cc-2c(=O)[nH]1

-- reply
1: 4.43; 2: 37.1

---

System: NCI-H522 lung
Assay: NCI tumour cell line growth inhibition, 48 h; in the data active = GI50 below about 0.43 µM; inactive = the rest
Reply using exactly one outcome from yes (1) = active, no (0) = inactive

COc1ncnc2c1ncn2C/C(Br)=C(\Br)CCl = no (0)

Here is the next item to consider.
-- ask Please share the test call associated with Cc1cc2cc(Oc3ccnc(Nc4cccc(CS(=O)(=O)NCCN(C)C)c4)n3)ccc2[nH]1 .
-- reply no (0)

---

Test system: RPMI-8226 leukemia
Assay: NCI tumour cell line growth inhibition, 48 h
Give measured GI50 for each item. Keep answers brief.

Consider the following illustrative entries.
COc1ccc(CNCCCN2C(=O)c3ccc4c5c(ccc(c35)C2=O)C(=O)N(CCCNCCCCNCCCN)C4=O)c(OC)c1OC = 2700 nM
COc1ccccc1NC(=O)N/C(N)=N/c1nc2ccccc2s1 = 163 nM
CCCCCn1ncc(-c2c(O)c(O)cc3c(O)c(-c4c(C)cc5c(-c6cnn(CCCCC)n6)c(O)c(O)cc5c4O)c(C)cc23)n1 = 109 nM

Please go through the list and note GI50 for each molecule.
1. CC(=O)OC1C(O)COC(Oc2c(C)c3c4c(c2O)[C@@H](C)CC[C@@H]4[C@@H](C)C[C@H]3C=C(C)C)C1O (stereo not given in full)
2. COc1cc(/C=C\c2cc(/C=C\c3ccc(O)c(OC)c3)n(C(=O)Nc3ccc(C(F)(F)F)cc3)n2)ccc1O

-- reply
13300 nM
2090 nM

Dear colleague, could you please provide GI50 for the molecules listed below?
1. C=C(C)[C@@H]1CC[C@]2(c3ncc(C)o3)CC[C@]3(C)[C@H](CC[C@@H]4[C@@](C)(CCC#N)[C@H](C(=C)C)CC[C@]43C)[C@@H]12
2. C=C(C)[C@@H]1CC[C@]2(C)[C@H](CC=C3[C@@H]4CC(C)(C)CC[C@]4(C(=O)OC)CC[C@]32C)[C@@]1(C)CC/C(N)=N/O
3. COc1ccc(-c2ccc(=O)oc2-c2cc(OC)c(OC)c(OC)c2)cc1O
4. COc1cccc(NC(=O)c2ccc(C(F)(F)F)nc2Nc2ccc(Cl)cc2C)c1

-- reply
1. 2440 nM
2. 1950 nM
3. 25.1 nM
4. 5540 nM

Please look at the items below and tell me GI50 for each one, in order.
1. CC(C)(C)OC(=O)N(CCCn1c2c(c3ccccc3c1=O)C(=O)c1ccccc1-2)CCN(CCCn1c2c(c3ccccc3c1=O)C(=O)c1ccccc1-2)C(=O)OC(C)(C)C
2. CCCCn1c(=O)c(/C=C/C(=O)/C=C/c2ccc(O)c(OC)c2)cc2ccc(Cl)cc21
3. Cn1c(-c2c(N)n(Cc3ccc(Cl)cc3)c3nc(C#N)c(C#N)nc23)nc2ccccc21

-- reply
1: 12100 nM; 2: 2460 nM; 3: 1730 nM

---

Test system: EKVX NSCLC
Assay: NCI tumour cell line growth inhibition, 48 h
measure: TGI

The following molecules have reported results that may help.
N#CC(C(=N/NC(N)=S)/C(=N\NC(N)=S)C(C#N)c1ccccc1)c1ccccc1 (centres undefined) = > 10 µM
CC(C)(C)OC(=O)N(CCCn1c2c(c3ccccc3c1=O)C(=O)c1ccccc1-2)CCN(CCCn1c2c(c3ccccc3c1=O)C(=O)c1ccccc1-2)C(=O)OC(C)(C)C = > 50 µM
CNNC1=NS(=O)(=O)c2cc(C(=O)OC)c(Cl)cc2S1 = > 10 µM
CC1=C(CC/C(C)=C/CCC2(C)CCC([C@H](C)C(=O)O)OO2)C(C)(C)CCC1 (some centres undefined) (tested in a mixture with another compound) = > 100 µM
N#CC1(C#N)C(c2ccccc2)NC23CCCCC2C1(C#N)C(=O)N3 (centres undefined) = > 100 µM
O=c1cc(-c2ccccc2)oc2cc(OCc3cn(Cc4ccc(F)cc4)nn3)cc(O)c12 = > 100 µM

Look up TGI for the entries below, preserving their order.
1. Cc1occc1C(=S)Nc1ccc(Cl)c(C(=O)OCC2CC2)c1
2. O=c1[nH]nc2c3n[nH]c(=O)n3c3ccccc3n12
3. COc1ccc(C(F)(F)F)cc1NC(=O)O/N=C(/Cl)C(C)C

-- reply
1. > 100 µM
2. > 100 µM
3. 33.6 µM

---

Give TGI for every item shown.
Test system: U251 CNS
Test: NCI tumour cell line growth inhibition, 48 h

NC(Cc1ccc2oc3cc(=O)c4ccccc4c-3nc2c1)C(=O)O (stereo not given) = > 87.1 µM
COC(=O)C1=C(O)C(C(=O)OC)[C@@]2(O)[C@@H](C(=O)OC)C(c3ccc(OC(=O)/C(=C/c4ccccc4)c4ccccc4)cc3)C[C@@H]1[C@@H]2C(=O)OC (stereo not given in full) = > 100 µM
CC(C)(C)OC(=O)N(CCCn1c2c(c3ccccc3c1=O)C(=O)c1ccccc1-2)CCN(CCCn1c2c(c3ccccc3c1=O)C(=O)c1ccccc1-2)C(=O)OC(C)(C)C = > 50 µM
O=c1[nH]nc2c3n[nH]c(=O)n3c3ccccc3n12 = > 100 µM
CC[O+]=c1cccc2ssnc1-2 = > 100 µM

// each listed compound needs a value for TGI
1. Cc1ccc(NCCN(C)CC(C)O)c2c(=O)c3ccc(Cl)cc3sc12 (stereo not given)
2. c1ccc(N=C2SC(c3ccccc3)CN2C23CC4CC(CC(C4)C2)C3)cc1 (stereo not given)
3. COC(=O)c1ccccc1C1CN=NC12Cc1c(C)c3c(c(C)c1C2=O)CCC3 (stereo not given)
4. CCCCn1c(=O)c(/C=C/C(=O)/C=C/c2ccc(O)c(OC)c2)cc2ccc(Cl)cc21
5. CCCN(CCC)C(=O)Cc1c2n(c3ccccc13)CCCc1ccccc1-2

-- reply
1. > 100 µM
2. > 100 µM
3. > 100 µM
4. 3.08 µM
5. 29.4 µM
